Endpoint name: melting point

Record excerpt, results attached:
CCOC(=O)c1cccc(-c2ccc(C#N)cc2)c1
91.5 to 92 °C
COCCOc1ccc(/C=C/C(=O)NS(=O)(=O)NCCc2ccccc2)c(Oc2ncc(C(F)(F)F)cc2Cl)c1
85 to 85.5 °C
c1ccc(CNc2ccc3ccccc3c2-c2c(P(c3ccccc3)c3ccccc3)ccc3ccccc23)cc1
70.1 °C
Clc1cc(Cl)cc(C2=NOCCS2)c1
88 to 89 °C
CC(=O)c1ccc2c(c1)-c1ccccc1-2
134 to 135 °C

Now look at this entry.
Task: Find the recorded melting point belonging to CCCC(=O)Nc1c2c(nc3ccccc13)CCCC2 and report it.
Result: 202 to 204 °C

* * *

Below, each of the molecules is paired with its reported melting point value.

Oc1ccc(-c2nc(Cn3ccnn3)cs2)cc1
164 to 166 °C
O=C(Nc1cccc(C(F)(F)F)c1)NC1N=C(c2ccccc2F)c2ccccc2N(CC(=O)N2CC3CCC(CC3)C2)C1=O (racemic)
226 to 227 °C
Cc1ccc(C[C@@H]2CN(C(=O)/C=C/c3ccc(C(F)(F)F)cc3)CCN2C(=O)c2cc(C(F)(F)F)cc(C(F)(F)F)c2)cc1C
74 to 76 °C
O=C(c1ccc(Cl)cc1)c1ccc([N+](=O)[O-])cc1
97 to 98 °C
COC(=O)N[C@@H](C)CNc1nccc(-c2cn(C(C)C)nc2-c2cc(Cl)cc(NS(C)(=O)=O)c2F)n1
150 to 152 °C

Task: Find the recorded melting point belonging to CCN(CC)c1ccc(C(c2ccc(N(C)C)cc2)c2ccc(N(C)C)cc2)c(O)c1 and report it.
Result: 94 to 95 °C

Task: Find the recorded melting point belonging to COC(=O)c1cccc(OC)c1OS(=O)(=O)NC(=O)Nc1nc(OC)cc(OC)n1 and report it.
Result: 169 to 170 °C

Task: Find the recorded melting point belonging to O=C(Cn1c(-c2ccccc2)ccc(NC(=O)OCc2ccccc2)c1=O)NC(Cc1ccccc1)C(=O)C(F)(F)F (stereo not drawn) and report it.
Result: 178 to 181 °C

* * *

Endpoint name: melting point

Task: Find the recorded melting point belonging to O=C1N[C@H](Cc2ccc(C(F)(F)F)cc2)[C@H](c2cccc(F)c2)O1 (racemic) and report it.
Result: 143 to 144 °C

Task: Find the recorded melting point belonging to O=c1[nH]c(COCc2ccccc2)nc2nccnc12 and report it.
Result: 157 to 159 °C

Task: Find the recorded melting point belonging to CCn1c(-c2ccc(Cl)cc2)n[nH]c1=O and report it.
Result: 188 to 189 °C

* * *

Below, each of the molecules is paired with its reported melting point value.

CC(C)[C@H](NC(=O)N(C)Cc1ccccn1)C(=O)N[C@@H](Cc1ccccc1)C[C@H](O)[C@H](Cc1ccccc1)NC(=O)OCc1cccnc1
58 to 61 °C
CCCN(CCCNc1ncc(Cc2ccc(F)cc2)c(=O)[nH]1)c1ccccn1
107 to 109 °C
Cc1ccc(S(=O)(=O)n2cc(CCN(Cc3ccccc3)Cc3ccccc3)c3ccccc32)cc1
116 to 118 °C
O=[N+]([O-])c1ccc2c(c1)NCC(C(F)F)(C(F)F)O2
150 to 152 °C
Cc1nc(NCC(C)C)sc1C(=O)c1ccc(N)c([N+](=O)[O-])c1
210 to 215 °C

Task: Find the recorded melting point belonging to Clc1ccc2c3c(cccc13)-c1ccccc1-2 and report it.
Result: 95 to 98 °C

Task: Find the recorded melting point belonging to O=[N+]([O-])N=c1ccccn1Cc1ccc(Cl)nc1 and report it.
Result: 209 to 212 °C

Value source: a melting point compilation (Tetko et al.; mined from patent text by program, amines drawn as free bases though some values may be those of a salt)
